Sourced from patent US20130210821A1

Target: hMetAP1 (Homo sapiens, UniProt P53582)
Experiment: MetAP1 enzyme assay
Format: biochemical
Conditions: Mn2+ as metal ion; Table 1; read-out: hMetAP1 Mn^2+ IC50
pIC50: −log10 of the molar value.
Overview of recorded pIC50 for various compounds

Problem: Record Oc1c(CN2CCCCC2)cc(Cl)c2cccnc12 [Entry 2b] : what is its pIC50 with hMetAP1 (Homo sapiens, UniProt P53582)?
Result: < 4.30

Problem: Give the reported pIC50 for Oc1c(C(c2ccccc2)N2CCOCC2)cc(Cl)c2cccnc12 (stereo not drawn) [Entry 2f] (system: hMetAP1 (Homo sapiens, UniProt P53582)).
Result: < 4.30

Problem: // lookup pIC50 | system=hMetAP1 (Homo sapiens, UniProt P53582) | key= Oc1c(CN2CCOCC2)ccc2cccnc12 [Entry 2c]
Result: < 4.30
